Assay: Metabolic stability using Human Liver Microsomes (HLM)
Format: in vitro ADME
Conditions: pooled human liver microsomes, compound 1 μM, 0.3 mg/ml microsomal protein, 1 mM NADPH
Experimental: Stability Protocol: Metabolic Stability Using Rat Liver Microsomes (RLM) and Human Liver Microsomes (HLM). This assay was performed using pooled male rat liver microsomes (In-house prepared as per SOP), Pooled Human liver microsomes (XENOTECH; Batch No— H0630-1110189)). […] The precipitated protein was removed by centrifugation and the supernatant were analyzed LC/MS-MS method. […]
quantity name: half-life at 1 μM

Request: Please give the measured half-life at 1 μM for this compound: COc1ccc(F)cc1[C@H]1CCCN1c1ccn2ncc(C(=O)NS(=O)(=O)C(C)(C)C)c2c1 [Example 42]
Result: > 1.33 h

Request: For the compound shown here, CC(C)(C)S(=O)(=O)NC(=O)c1cnn2ccc(N3C[C@@H](F)C[C@@H]3c3cc(F)ccc3F)cc12 (single isomer, unassigned) [Example 52] , give the reported half-life at 1 μM.
Result: > 1.33 h

Request: Which value of half-life at 1 μM has been reported for O=C(NS(=O)(=O)c1ccc(N2CC[C@H](O)C2)nc1)c1cnn2ccc(N3CCC[C@@H]3c3cc(F)ccc3F)cc12 [Example 25] in the records?
Result: > 1.33 h

Request: Data request, read-out half-life at 1 μM, for CC(C)S(=O)(=O)NC(=O)c1cnn2ccc(N3C[C@@H](F)C[C@@H]3c3cccc(F)c3)c(F)c12 [Example 122]
Result: > 1.33 h

Request: For the compound shown here, CCN(C)S(=O)(=O)NC(=O)c1cnn2ccc(N3CCC[C@@H]3c3cc(F)ccc3OC)cc12 [Example 91] , give the reported half-life at 1 μM.
Result: > 1.33 h

Request: Fill in the blank: the reported half-life at 1 μM of CCN(C)S(=O)(=O)NC(=O)c1cnn2ccc(N3CCCC3c3cc(F)cc4c3OCCCO4)cc12 (single isomer, unassigned) [Example 96] is ____.
Result: > 1.33 h
